Cited source for all entries: ChEMBL document CHEMBL1201861

System: SN12C;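 note: growth inhibition of human SN12C cells, measured by a cell viability assay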
PROCEDURE DETAILS: cells
Assay type: functional, cell-based, Homo sapiens
MEASUREMENT CONDITIONS: Homo sapiens, SN12C
Description: SANGER: Inhibition of human SN12C cell growth in a cell viability assay.

{"COMPOUND": "O=C(O)c1ccc(-c2c[nH]c3ncc(-c4ccccc4)cc23)cc1C1CCCC1", "IC50": "> 16 µM"}
{"COMPOUND": "N#Cc1c(O)c2c(-c3ccc(-c4ccccc4O)cc3)csc2[nH]c1=O", "IC50": "> 1.02 µM"}
{"COMPOUND": "COc1cc2c(Nc3ccc(NC(=O)c4ccccc4)cc3)ncnc2cc1OCCCN1CCOCC1", "IC50": "> 4 µM"}
{"COMPOUND": "CC(C)CCN1c2nc(Nc3cc(F)c(O)c(F)c3)ncc2N(C)C(=O)C1C (centres undefined)", "IC50": "> 5 µM"}

====

The entries below come with measured IC50 values attached.
System: COR-L279
PROCEDURE DETAILS: SANGER: Inhibition of human COR-L279 cell growth in a cell viability assay.
Type: functional, cell-based
MEASUREMENT CONDITIONS: Homo sapiens, COR-L279

{"MOLECULE": "CC(=O)O[C@H]1C(=O)[C@@]2(C)[C@H]([C@H](OC(=O)c3ccccc3)[C@]3(O)C[C@H](OC(=O)[C@H](O)[C@@H](NC(=O)c4ccccc4)c4ccccc4)C(C)=C1C3(C)C)[C@]1(OC(C)=O)CO[C@@H]1C[C@@H]2O [PACLITAXEL]", "SYSTEM": "COR-L279", "IC50": "9.99 nM"}
{"MOLECULE": "CCC/C=C/C=C/C(=O)O[C@H]1/C(=C/C(=O)OC)C[C@H]2C[C@H]([C@@H](C)O)OC(=O)C[C@H](O)C[C@@H]3C[C@H](OC(C)=O)C(C)(C)[C@](O)(C[C@@H]4C/C(=C/C(=O)OC)C[C@H](/C=C/C(C)(C)[C@]1(O)O2)O4)O3 [BRYOSTATIN 1]", "SYSTEM": "COR-L279", "IC50": "> 8 nM"}
{"MOLECULE": "COc1cc(-c2nn([C@H]3CC[C@H](N4CCN(C(C)=O)CC4)CC3)c3ncnc(N)c23)ccc1NC(=O)c1cc2ccccc2n1C", "SYSTEM": "COR-L279", "IC50": "> 5120 nM"}
{"MOLECULE": "Oc1ccc2ccccc2c1SSc1c(O)ccc2ccccc12", "SYSTEM": "COR-L279", "IC50": "> 32000 nM"}
{"MOLECULE": "N#Cc1c(O)c2c(-c3ccc(-c4ccccc4O)cc3)csc2[nH]c1=O", "SYSTEM": "COR-L279", "IC50": "253 nM"}
{"MOLECULE": "Cc1ccc(-c2c(C(=O)CCl)n(CCCO)c3ncnc(N)c23)cc1", "SYSTEM": "COR-L279", "IC50": "> 4000 nM"}
{"MOLECULE": "COc1cc2ncn(-c3cc(OCc4ccccc4S(C)(=O)=O)c(C#N)s3)c2cc1OC [GSK-319347A]", "SYSTEM": "COR-L279", "IC50": "> 5000 nM"}

====

Tested on: KU812 cell line;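 note: growth inhibition of KU812 cells, read out with a cell viability assay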
PROCEDURE DETAILS: cells
Assay type: functional, cell-based, Homo sapiens
MEASUREMENT CONDITIONS: Homo sapiens, KU812
Description: SANGER: Inhibition of human KU812 cell growth in a cell viability assay.
Quick list: IC50 per entry.
READOUT: IC50 (nM)

{"COMPOUND": "Nc1cccc2c1CN(C1CCC(=O)NC1=O)C2=O (configuration not stated) [LENALIDOMIDE]", "READOUT": "IC50", "QUANTITY UNIT": "nM", "RELATION QUALIFIER": ">", "TEST VALUE": 5000}
{"COMPOUND": "COc1cc2ncn(-c3cc(OCc4ccccc4C(F)(F)F)c(C(N)=O)s3)c2cc1OC [GW843682X]", "READOUT": "IC50", "QUANTITY UNIT": "nM", "RELATION QUALIFIER": "=", "TEST VALUE": 85.2}
{"COMPOUND": "N[C@@H](CSC(c1ccccc1)(c1ccccc1)c1ccccc1)C(=O)O [S-TRITYL-L-CYSTEINE]", "READOUT": "IC50", "QUANTITY UNIT": "nM", "RELATION QUALIFIER": ">", "TEST VALUE": 5120}
{"COMPOUND": "CC(C)CCN1c2nc(Nc3cc(F)c(O)c(F)c3)ncc2N(C)C(=O)C1C (configuration not stated)", "READOUT": "IC50", "QUANTITY UNIT": "nM", "RELATION QUALIFIER": "=", "TEST VALUE": 626}
{"COMPOUND": "OCCCNc1cc(-c2ccnc(Nc3cccc(Cl)c3)n2)ccn1", "READOUT": "IC50", "QUANTITY UNIT": "nM", "RELATION QUALIFIER": "=", "TEST VALUE": 45}
{"COMPOUND": "CC(=O)O[C@H]1C(=O)[C@@]2(C)[C@H]([C@H](OC(=O)c3ccccc3)[C@]3(O)C[C@H](OC(=O)[C@H](O)[C@@H](NC(=O)c4ccccc4)c4ccccc4)C(C)=C1C3(C)C)[C@]1(OC(C)=O)CO[C@@H]1C[C@@H]2O [PACLITAXEL]", "READOUT": "IC50", "QUANTITY UNIT": "nM", "RELATION QUALIFIER": "=", "TEST VALUE": 20.4}
{"COMPOUND": "COc1cccc2c1C(=O)c1c(O)c3c(c(O)c1C2=O)C[C@@](O)(C(=O)CO)C[C@@H]3O[C@H]1C[C@H](N)[C@H](O)[C@H](C)O1 [DOXORUBICIN]", "READOUT": "IC50", "QUANTITY UNIT": "nM", "RELATION QUALIFIER": "=", "TEST VALUE": 33.2}

====

Items are presented alongside their recorded IC50.
System: CAMA-1
PROCEDURE DETAILS: cells
Format: functional, cell-based, Homo sapiens
MEASUREMENT CONDITIONS: Homo sapiens, CAMA-1
Description: SANGER: Inhibition of human CAMA-1 cell growth in a cell viability assay.

{"COMPOUND": "CCC/C=C/C=C/C(=O)O[C@H]1/C(=C/C(=O)OC)C[C@H]2C[C@H]([C@@H](C)O)OC(=O)C[C@H](O)C[C@@H]3C[C@H](OC(C)=O)C(C)(C)[C@](O)(C[C@@H]4C/C(=C/C(=O)OC)C[C@H](/C=C/C(C)(C)[C@]1(O)O2)O4)O3 [BRYOSTATIN 1]", "IC50": "> 8 nM"}
{"COMPOUND": "CC(C)c1ccccc1Cc1cc(C(=O)Nc2ccc(S(=O)(=O)c3ccccc3C(C)(C)C)cc2)c(O)c(O)c1O", "IC50": "661 nM"}
{"COMPOUND": "Cc1cc([N+](=O)[O-])ccc1NS(=O)(=O)c1cc(Cl)ccc1Cl", "IC50": "911 nM"}
{"COMPOUND": "CC1(C)CNc2cc(NC(=O)c3cccnc3NCc3ccncc3)ccc21 [MOTESANIB]", "IC50": "> 2000 nM"}
{"COMPOUND": "Oc1ccc2ccccc2c1SSc1c(O)ccc2ccccc12", "IC50": "> 32000 nM"}
{"COMPOUND": "Cc1cn(-c2cc(NC(=O)c3ccc(C)c(Nc4nccc(-c5cccnc5)n4)c3)cc(C(F)(F)F)c2)cn1 [NILOTINIB]", "IC50": "> 2000 nM"}

====

Tested on: KE-37
PROCEDURE DETAILS: cells
Format: functional, cell-based, Homo sapiens
MEASUREMENT CONDITIONS: Homo sapiens, KE-37
Description: SANGER: Inhibition of human KE-37 cell growth in a cell viability assay.
One threshold, 10 nM, splits the recorded IC50 values: lower ones are True, equal or higher ones are False.

{"MOLECULE": "N[C@@H](CSC(c1ccccc1)(c1ccccc1)c1ccccc1)C(=O)O", "ASSIGNED LABEL": "False"}
{"MOLECULE": "COc1cc2c(Nc3ccc(NC(=O)c4ccccc4)cc3)ncnc2cc1OCCCN1CCOCC1", "ASSIGNED LABEL": "False"}
{"MOLECULE": "COc1cc2ncn(-c3cc(OCc4ccccc4C(F)(F)F)c(C(N)=O)s3)c2cc1OC [GW843682X]", "ASSIGNED LABEL": "True"}
{"MOLECULE": "CC1(C)CNc2cc(NC(=O)c3cccnc3NCc3ccncc3)ccc21", "ASSIGNED LABEL": "False"}
{"MOLECULE": "CC(=O)O[C@H]1C(=O)[C@@]2(C)[C@H]([C@H](OC(=O)c3ccccc3)[C@]3(O)C[C@H](OC(=O)[C@H](O)[C@@H](NC(=O)c4ccccc4)c4ccccc4)C(C)=C1C3(C)C)[C@]1(OC(C)=O)CO[C@@H]1C[C@@H]2O", "ASSIGNED LABEL": "False"}
{"MOLECULE": "OCCCNc1cc(-c2ccnc(Nc3cccc(Cl)c3)n2)ccn1", "ASSIGNED LABEL": "False"}
{"MOLECULE": "Nc1ccn([C@@H]2O[C@H](CO)[C@@H](O)C2(F)F)c(=O)n1", "ASSIGNED LABEL": "True"}
